METHOD: APR_HepG2_StressKinase_24hr: Apredica 24-hour HepG2 Assay for Stress Kinase (AID 2282922)
CONDITION PARAMETERS: HepG2 stress kinase (phospho-c-Jun) imaging, actives raise or lower the signal
Calls of active or inactive are those of the source. The calls were made as follows: active = hit-call score of the fitted dose curve at least 0.9, where 1 is the maximum; inactive = score below 0.9.
Classes used: active, inactive

| COMPOUND | CLASSIFICATION |
| --- | --- |
| CC(C)(C)OOC(C)(C)C | inactive |
| O=P1(N(CCCl)CCCl)NCCCO1 (centres undefined) | inactive |
| Cc1cccc(N)c1 | inactive |
| CSC(C)(C)C=NO | inactive |
| CCCCCCCc1ccc(O)cc1 | inactive |
| CCCN(CCC)c1c([N+](=O)[O-])cc(C(C)C)cc1[N+](=O)[O-] | inactive |
| c1ccc2c(c1)Nc1ccccc1S2 | inactive |
| CCC(C)(C)c1ccc(O)cc1 | inactive |
| Cc1ccc(O)cc1C | inactive |
| ClC1=C(Cl)C2(Cl)C3C(Cl)C(Cl)CC3C1(Cl)C2(Cl)Cl (centres undefined) | active |
| c1nc[nH]n1 | inactive |
| COCCOCCO | inactive |
| CCOC(=O)c1ccccc1C(=O)OCC | inactive |
| [N-]=[N+]=[N-] | inactive |

* * *

METHOD: APR_HepG2_CellLoss_72hr: Apredica 72-hour HepG2 Assay for Cell Loss (AID 2282915)
CONDITION PARAMETERS: high-content imaging
The source made the active and inactive calls. How the source made its calls: active means hit-call score of the fitted dose curve at least 0.9, where 1 is the maximum; inactive means score below 0.9.
Classes used: active, inactive

| MOLECULE | CLASSIFICATION |
| --- | --- |
| CCOP(=S)(Oc1ccc([N+](=O)[O-])cc1)c1ccccc1 (stereo unspecified) | active |
| CC(C)(C)OOC(C)(C)C | inactive |
| O=[N+]([O-])c1ccccc1 | inactive |
| CC(Cc1ccc(OCC(=O)O)cc1)NCC(O)c1csc(C(F)(F)F)n1 (stereo unspecified) | inactive |
| CSC(C)(C)C=NO | inactive |
| Nc1ccc2ccccc2c1 | inactive |
| c1ccc2c(c1)Nc1ccccc1S2 | active |
| O=P1(N(CCCl)CCCl)NCCCO1 (stereo unspecified) | inactive |
| [N-]=[N+]=[N-] | inactive |
| O=[N+]([O-])c1ccc(Cl)c(Cl)c1 | inactive |
| CCCCN(CCCC)N=O | inactive |

* * *

METHOD: ATG_DR4_LXR_CIS: Attagene CIS-FACTORIAL HepG2 Assay for human Liver X Receptor (LXR), DR4 submotif (AID 2282929)
CONDITION PARAMETERS: HepG2 Attagene DR4 cis-reporter, mRNA transcription; actives raise or lower the signal
Active and inactive are the calls of the source. Rule for the calls: active = hit-call score of the fitted dose curve at least 0.9, where 1 is the maximum; inactive = score below 0.9.
Classes used: t (active), f (inactive)

| COMPOUND | CLASSIFICATION |
| --- | --- |
| CCCCOCCOP(=O)(OCCOCCCC)OCCOCCCC | f |
| O=P1(N(CCCl)CCCl)NCCCO1 (stereo not drawn) | f |
| OCC(F)(F)OC(F)(F)C(F)(F)OC(F)(F)C(F)(F)OC(F)(F)CO | f |
| CC(O)C#N (stereo not drawn) | f |
| C=CC(=O)OCC(F)(F)C(F)F | t |
| CCCCCCCc1ccc(O)cc1 | f |
| CO/N=C(/C(=O)OC)c1ccccc1COc1ccccc1C | f |
| O=P(OCC(Br)CBr)(OCC(Br)CBr)OCC(Br)CBr (stereo not drawn) | t |
| CCCCN(CC)C(=O)SCCC | f |
| O=[N+]([O-])c1ccc(Cl)c(Cl)c1 | f |
| CCOS(=O)(=O)OCC | f |
| Cc1ccc2c(c1N)C(=O)c1ccccc1C2=O | f |
| C/C(=N\NC(=O)Nc1cc(F)cc(F)c1)c1ncccc1C(=O)O | f |
| COC(N)=O | f |
| N#Cc1c(-c2ccc(Cl)cc2)[nH]c(C(F)(F)F)c1Br | f |
| CN(C)C(=O)Cl | f |
| CCOP(=S)(OCC)SCSc1ccc(Cl)cc1 | f |
| O=C(O)C=CC(F)(C(F)(F)F)C(F)(F)F | f |
| CCCN(CCC)c1c([N+](=O)[O-])cc(C(C)C)cc1[N+](=O)[O-] | t |
| CC(C)(C)OOC(C)(C)C | f |
| c1ccc2c(c1)Nc1ccccc1S2 | f |
| N#Cc1cc([N+](=O)[O-])ccc1N | f |
| Nc1cc2c3c(c1)C(c1ccccc1)=N[C@@H](NC(=O)c1cccnc1)C(=O)N3CC2 | f |
| Cc1ccc(C(=O)Cl)cc1 | f |
| CCCCN(CCCC)SN(C)C(=O)Oc1cccc2c1OC(C)(C)C2 | t |
| ClC(Cl)=C(c1ccc(Cl)cc1)c1ccccc1Cl | t |
| C=CC(=O)OCC(CC)(COC(=O)C=C)COC(=O)C=C | t |
| c1cc2c3c(cccc3c1)CC2 | f |
| O=C(O)C(F)(F)OC(F)(F)C(F)(F)OC(F)(F)C(=O)O | f |
| COP(N)(=S)OC | f |
| CCCCN(CCCC)N=O | f |
| CCN(CC)C1CCCCC1 | f |
| O=c1[nH]c2ccccc2c(=O)o1 | f |
| O=C(O)C(F)(F)C(F)(F)C(=O)O | f |
| CCOP(=S)(NC(C)C)Oc1ccccc1C(=O)OC(C)C (stereo not drawn) | t |
| Nc1ccc(Sc2ccc(N)cc2)cc1 | f |
| CC(Cc1ccc(OCC(=O)O)cc1)NCC(O)c1csc(C(F)(F)F)n1 (stereo not drawn) | f |
| c1nc[nH]n1 | f |
| FC(F)(F)c1ccc(Cl)cc1 | f |
| Cc1ccc([N+](=O)[O-])cc1C | f |
| Cc1cc(C)c(C(=O)P(=O)(c2ccccc2)c2ccccc2)c(C)c1 | t |
| c1ccc2c(c1)sc1ccccc12 | f |
| O=C(O)CF | f |
